# ASSAY_REMARKS: Toxicity in sheep RBC assessed as hemolytic activity after 1 hr
# Assay type: cell-based, Ovis aries, Erythrocyte
# CONDITIONS: sheep red blood cells
READOUT_TYPE: HC50 at 1 h

>  <CHEM_SMILES>
CC(C)C[C@@H]1NC(=O)CN(Cc2ccc(-c3ccccc3)cc2)NC(=O)[C@H](CC(C)C)NC(=O)CN(Cc2ccc(-c3ccccc3)cc2)NC(=O)[C@H](CCCCN)NC(=O)CN(CCCCN)NC1=O

>  <HC50 at 1 h>
15 µM

$$$$
>  <CHEM_SMILES>
C[C@@H](O)[C@@H]1NC(=O)CN(CCCCN)NC(=O)[C@H](Cc2ccccc2)NC(=O)CN(Cc2cccc3ccccc23)NC(=O)[C@H](CO)NC(=O)CN(CCCCN)NC(=O)[C@H](CO)NC(=O)CN(CCCCN)NC1=O

>  <HC50 at 1 h>
> 100 µM

$$$$
>  <CHEM_SMILES>
N=C(N)NCCC[C@@H]1NC(=O)CN(CCCCN)NC(=O)CN(Cc2ccc3ccccc3c2)NC(=O)[C@H](Cc2ccccc2)NC(=O)CN(Cc2ccc3ccccc3c2)NC1=O

>  <HC50 at 1 h>
> 100 µM

$$$$
>  <CHEM_SMILES>
N=C(N)NCCC[C@@H]1NC(=O)CN(CC2CCCCC2)NC(=O)[C@H](Cc2c[nH]c3ccccc23)NC(=O)CN(Cc2ccc(F)cc2)NC(=O)[C@H](Cc2c[nH]c3ccccc23)NC(=O)CN(CCCCN)NC1=O

>  <HC50 at 1 h>
> 100 µM

$$$$

# context switch: different compound, same HC50 at 1 h
// returns reported HC50 at 1 h for input CC(C)C[C@H]1NC(=O)CN(CCCCN)NC(=O)[C@H](CCCCN)NC(=O)CN(Cc2cccc3ccccc23)NC(=O)CN(CC(C)C)NC1=O > 100 µM

----------
# Tested on: Streptococcus equinus
# ASSAY_REMARKS: Antibacterial activity against Streptococcus equinus ATCC 5623 after 48 hrs by microtiter broth dilution method
# Assay type: functional
# CONDITIONS: ATCC 5623, 48 h
READOUT_TYPE: MIC (µM)
Respond with the bare value in µM.

// solved cases for MIC follow
>  <CHEM_SMILES>
CCCCCCCCCCCCN1CC(=O)N[C@@H](Cc2c[nH]c3ccccc23)C(=O)NN(Cc2cccc3ccccc23)CC(=O)N[C@@H](CCCCN)C(=O)NN(CCCCN)CC(=O)N[C@@H](CC2CCCCC2)C(=O)N1

>  <VALUE_MEASURED>
12.5

$$$$
>  <CHEM_SMILES>
N=C(N)NCCC[C@@H]1NC(=O)CN(CCCCN)NC(=O)CN(Cc2ccc3ccccc3c2)NC(=O)[C@H](Cc2ccccc2)NC(=O)CN(Cc2ccc3ccccc3c2)NC1=O

>  <VALUE_MEASURED>
12.5

$$$$

# context switch: different compound, same MIC
Notebook entry, Streptococcus equinus assay: MIC of CC(C)CN1CC(=O)N[C@@H](Cc2c[nH]c3ccccc23)C(=O)NN(CC(C)C)CC(=O)N[C@@H](CCCCN)C(=O)NN(CCCCN)CC(=O)N[C@@H](Cc2c[nH]c3ccccc23)C(=O)N1 = ? 100

----------
# Tested on: Klebsiella oxytoca
# ASSAY_REMARKS: Antibacterial activity against Klebsiella oxytoca CIP 7932 after 48 hrs by microtiter broth dilution method
# Format: functional
# CONDITIONS: CIP 7932, 48 h
// reported MIC for each item listed

>  <CHEM_SMILES>
CCCCCCCCN1CC(=O)N[C@@H](Cc2c[nH]c3ccccc23)C(=O)NN(CCCCCCCC)CC(=O)N[C@@H](CCCCN)C(=O)NN(CCCCN)CC(=O)N[C@@H](Cc2c[nH]c3ccccc23)C(=O)N1

>  <MIC>
> 100 µM

$$$$

// returns reported MIC for input C[C@@H](O)[C@@H]1NC(=O)CN(CCCCN)NC(=O)[C@H](Cc2ccccc2)NC(=O)CN(Cc2cccc3ccccc23)NC(=O)[C@H](CO)NC(=O)CN(CCCCN)NC(=O)[C@H](CO)NC(=O)CN(CCCCN)NC1=O > 100 µM

And the next one, CC(C)C[C@H]1NC(=O)CN(CCCCN)NC(=O)[C@H](CCCCN)NC(=O)CN(Cc2cccc3ccccc23)NC(=O)CN(CC(C)C)NC1=O ? > 100 µM

----------
# ASSAY_REMARKS: Toxicity in sheep RBC assessed as hemolytic activity after 1 hr
# Assay type: cell-based, Ovis aries, Erythrocyte
# CONDITIONS: sheep red blood cells
// reported HC50 at 1 h for each item listed

// solved cases for HC50 at 1 h follow
>  <CHEM_SMILES>
CC(C)CN1CC(=O)N[C@@H](Cc2c[nH]c3ccccc23)C(=O)NN(CC(C)C)CC(=O)N[C@@H](CCCCN)C(=O)NN(CCCCN)CC(=O)N[C@@H](Cc2c[nH]c3ccccc23)C(=O)N1

>  <VALUE_MEASURED>
> 100 µM

$$$$
>  <CHEM_SMILES>
CCCCCCCCCCCCN1CC(=O)N[C@@H](Cc2c[nH]c3ccccc23)C(=O)NN(Cc2cccc3ccccc23)CC(=O)N[C@@H](CCCCN)C(=O)NN(CCCCN)CC(=O)N[C@@H](CC2CCCCC2)C(=O)N1

>  <VALUE_MEASURED>
50 µM

$$$$
>  <CHEM_SMILES>
CC(C)CN1CC(=O)N[C@@H](Cc2c[nH]c3ccccc23)C(=O)NN(CCCCN)CC(=O)N[C@@H](CCCCN)C(=O)NN(CCCCN)CC(=O)N[C@@H](Cc2c[nH]c3ccccc23)C(=O)N1

>  <VALUE_MEASURED>
> 100 µM

$$$$

// returns reported HC50 at 1 h for input CC(C)C[C@@H]1NC(=O)CN(Cc2ccc3ccccc3c2)NC(=O)[C@H](CCCCN)NC(=O)CN(CCCCN)NC(=O)CN(Cc2ccc3ccccc3c2)NC1=O > 100 µM

And the next one, CC(C)C[C@@H]1NC(=O)CN(Cc2ccc(-c3ccccc3)cc2)NC(=O)[C@H](CCCCN)NC(=O)CN(CCCCN)NC(=O)CN(Cc2ccc(-c3ccccc3)cc2)NC1=O ? > 100 µM

----------
# ASSAY_REMARKS: Half life in bovine serum
# Assay type: ADME, cell-free, Bos taurus
# CONDITIONS: cattle
READOUT_TYPE: half-life

// solved cases for half-life follow
>  <CHEM_SMILES>
CCCCCCCCN1CC(=O)N[C@@H](Cc2c[nH]c3ccccc23)C(=O)NN(CCCCCCCC)CC(=O)N[C@@H](CCCCN)C(=O)NN(CCCCN)CC(=O)N[C@@H](Cc2c[nH]c3ccccc23)C(=O)N1

>  <half-life>
> 2 h

$$$$
>  <CHEM_SMILES>
N=C(N)NCCC[C@@H]1NC(=O)CN(CC2CCCCC2)NC(=O)[C@H](Cc2c[nH]c3ccccc23)NC(=O)CN(Cc2ccc(F)cc2)NC(=O)[C@H](Cc2c[nH]c3ccccc23)NC(=O)CN(CCCCN)NC1=O

>  <half-life>
> 2 h

$$$$

// returns reported half-life for input CCCCCCCCCCCCN1CC(=O)N[C@@H](Cc2c[nH]c3ccccc23)C(=O)NN(Cc2cccc3ccccc23)CC(=O)N[C@@H](CCCCN)C(=O)NN(CCCCN)CC(=O)N[C@@H](CC2CCCCC2)C(=O)N1 > 2 h

----------
# Test system: Klebsiella oxytoca
# ASSAY_REMARKS: Antibacterial activity against Klebsiella oxytoca CIP 7932 after 48 hrs by microtiter broth dilution method
# Format: functional
# CONDITIONS: CIP 7932, 48 h
READOUT_TYPE: MIC

// solved cases for MIC follow
>  <CHEM_SMILES>
CCCCCCCCCCCCN1CC(=O)N[C@@H](Cc2c[nH]c3ccccc23)C(=O)NN(Cc2cccc3ccccc23)CC(=O)N[C@@H](CCCCN)C(=O)NN(CCCCN)CC(=O)N[C@@H](CC2CCCCC2)C(=O)N1

>  <ASSAY_TARGET>
Klebsiella oxytoca

>  <MIC>
> 100 µM

$$$$
>  <CHEM_SMILES>
CC(C)CN1CC(=O)N[C@@H](Cc2c[nH]c3ccccc23)C(=O)NN(CC(C)C)CC(=O)N[C@@H](CCCCN)C(=O)NN(CCCCN)CC(=O)N[C@@H](CCCCN)C(=O)N1

>  <ASSAY_TARGET>
Klebsiella oxytoca

>  <MIC>
> 100 µM

$$$$

// returns reported MIC for input N=C(N)NCCC[C@@H]1NC(=O)CN(CC2CCCCC2)NC(=O)[C@H](Cc2c[nH]c3ccccc23)NC(=O)CN(Cc2ccc(F)cc2)NC(=O)[C@H](Cc2c[nH]c3ccccc23)NC(=O)CN(CCCCN)NC1=O 25 µM

----------
// reported MIC for each item listed
# Test system: Streptococcus equinus
# ASSAY_REMARKS: Antibacterial activity against Streptococcus equinus ATCC 5623 after 48 hrs by microtiter broth dilution method
# Format: functional
# CONDITIONS: ATCC 5623, 48 h

// solved cases for MIC follow
>  <CHEM_SMILES>
CC(C)C[C@@H]1NC(=O)CN(Cc2cccc3ccccc23)NC(=O)[C@H](CCCNC(=N)N)NC(=O)CN(CCCNC(=N)N)NC(=O)[C@H](CC(C)C)NC1=O

>  <MIC>
100 µM

$$$$
>  <CHEM_SMILES>
CC(C)CN1CC(=O)N[C@@H](Cc2c[nH]c3ccccc23)C(=O)NN(CCCCN)CC(=O)N[C@@H](CCCCN)C(=O)NN(CCCCN)CC(=O)N[C@@H](Cc2c[nH]c3ccccc23)C(=O)N1

>  <MIC>
> 100 µM

$$$$
>  <CHEM_SMILES>
C[C@@H](O)[C@@H]1NC(=O)CN(CCCCN)NC(=O)[C@H](Cc2ccccc2)NC(=O)CN(Cc2cccc3ccccc23)NC(=O)[C@H](CO)NC(=O)CN(CCCCN)NC(=O)[C@H](CO)NC(=O)CN(CCCCN)NC1=O

>  <MIC>
> 100 µM

$$$$

// returns reported MIC for input CC(C)C[C@H]1NC(=O)CN(CCCCN)NC(=O)[C@H](CCCCN)NC(=O)CN(Cc2cccc3ccccc23)NC(=O)CN(CC(C)C)NC1=O 100 µM

And the next one, CC(C)C[C@@H]1NC(=O)CN(Cc2ccc3ccccc3c2)NC(=O)[C@H](CCCCN)NC(=O)CN(CCCCN)NC(=O)CN(Cc2ccc3ccccc3c2)NC1=O ? 25 µM

And the next one, N=C(N)NCCC[C@@H]1NC(=O)CN(CC2CCCCC2)NC(=O)[C@H](Cc2c[nH]c3ccccc23)NC(=O)CN(Cc2ccc(F)cc2)NC(=O)[C@H](Cc2c[nH]c3ccccc23)NC(=O)CN(CCCCN)NC1=O ? 6.25 µM

And the next one, CCCCCCCCN1CC(=O)N[C@@H](Cc2c[nH]c3ccccc23)C(=O)NN(CCCCCCCC)CC(=O)N[C@@H](CCCCN)C(=O)NN(CCCCN)CC(=O)N[C@@H](Cc2c[nH]c3ccccc23)C(=O)N1 ? 6.25 µM

And the next one, CC(C)C[C@@H]1NC(=O)CN(Cc2ccc(-c3ccccc3)cc2)NC(=O)[C@H](CCCCN)NC(=O)CN(CCCCN)NC(=O)CN(Cc2ccc(-c3ccccc3)cc2)NC1=O ? 6.25 µM

And the next one, CC(C)C[C@@H]1NC(=O)CN(Cc2ccc(-c3ccccc3)cc2)NC(=O)[C@H](CC(C)C)NC(=O)CN(Cc2ccc(-c3ccccc3)cc2)NC(=O)[C@H](CCCCN)NC(=O)CN(CCCCN)NC1=O ? 1.56 µM

And the next one, CC(C)CN1CC(=O)N[C@@H](Cc2c[nH]c3ccccc23)C(=O)NN(CC(C)C)CC(=O)N[C@@H](CCCCN)C(=O)NN(CCCCN)CC(=O)N[C@@H](CCCCN)C(=O)N1 ? > 100 µM

Reference source: ChEMBL document CHEMBL2176932
